Where these numbers come from: patent US12129308

# TARGET_DESC: cynomolgus MMP13 (cynomolgus, UniProt A0A2K5U988 104-471)
# TEST_SUMMARY: cell-based or functional assay
PROPERTY: IC50, cyno fluorogenic peptide assay (nM)
Numbers only, in nM.

Use the examples below as a reference point.
{"BINDER": "C0101PMP520B06 (VHH, Profile 2 Nanobody) VHH: DVQLVESGGGLVQPGGSLRLSCAASGRTFSSYAMGWFRQAPGKEREFVAAISWGGGSTYYSDSVKGRFTISRDNSKNTVYLQMNSLRPEDTAVYYCTAALGSTGSGSTPVPEYRYWGQGTLVTVSS", "READOUT_UNIT": "nM", "IC50, cyno fluorogenic peptide assay": 9.5}
{"BINDER": "C0101PMP513C04 (VHH) VHH: DVQLVESGGGLVQPGGSLRLSCAASGRTFSRYVMGWFRQAPGKEREFVAAINWSSGSTYYADSVKGRFTISRDNSKNTVYLQMNSLRPEDTAVYYCAADRRVYYDTYPNLRGYDYWGQGTLVTVSS", "READOUT_UNIT": "nM", "IC50, cyno fluorogenic peptide assay": 8}
{"BINDER": "C0101PMP521F02 (VHH, Profile 2 Nanobody) VHH: DVQLVESGGGLVQPGGSLRLSCVASGLTFSSYAMGWFRQAPGKEREFVAAISWSGGRTYYADSVKGRFTISRDNSKNTVYLQMNSLRPEDTAVYYCTAARGPGSVGPSEEYNYWGQGTLVTVSS", "READOUT_UNIT": "nM", "IC50, cyno fluorogenic peptide assay": 7}
{"BINDER": "C0101PMP080A01 (VHH) VHH: EVQLVESGGGLVQPGGSLRLSCAASGFTLAYYSIGWFRQAPGKEREGVSCISSGIDGSTYYADSVKGRFTISRDNAKNTMYLQMNNLKPEDTGVYYCAADPSHYYSEYDCGYYGMDYWGKGTLVTVSS", "READOUT_UNIT": "nM", "IC50, cyno fluorogenic peptide assay": 2.9}

For each of the binders below, note its IC50, cyno fluorogenic peptide assay.
1. C0101PMP520C04 (VHH, Profile 2 Nanobody) VHH: DVQLVESGGGLVQPGGSLRLSCAASGRTFSSYAMGWFRQAPGKEREFVAAISWSGGSTYYSDSVKGRFTISRDNSKNTVYLQMNSLRPEDTAVYYCTAARGGVAGTDGPLGDYNYWGQGTLVTVSS
2. C0101PMP529G11 (VHH, Profile 2 Nanobody) VHH: DVQLVESGGGLVQPGGSLRLSCAASGSIFRINAMGWYRQAPGKQRELVAAIISGGTTYYADSVKGRFTISRDNSKNTVYLQMNSLRPEDTAVYYCYADIGWPYVLDYDFWGQGTLVTVSS
3. C0101PMP059F06 (VHH, Profile 2 Nanobody) VHH: EVQLVESEGGTVEPGESLRLACAAPGPGIRTNFMAWYRQAPEKEREMVASISRDGSTHYADSVKGRFTISSDNATSTFYLQMNSLQVEDTAVYYCATDPHILHNDRAGAFLVEDYDHWGQGTQVTVSS
4. C0101PMP519E04 (VHH, Profile 2 Nanobody) VHH: DVQLVESGGGLVQPGGSLRLSCVASGPTFSDYAMGWFRQAPGKEREFVAAISWSGGSTYYADSVKGRFTISRDNSKNTVYLQMNSLRPEDTAVYYCTAARGGGYRASGGPLSEYNYWGQGTLVTVSS

1: 32.5; 2: 7.1; 3: 48.5; 4: 7.2
